Assay: yeast display, Sf9 membrane polyspecificity reagent, FACS + sequencing; frameworks hold sequencing errors
ENDPOINT: polyreactivity (PSR sort gate)

1) QVQLVESGGGLVQAGGSLRLSCAASGSTFERYAMGWYRQAPGKKGSWLPYADSVKGRFTISRDNAKNTVYLQMNSLKPEDTAVYYCNAERYSPTLNLDRGWEYDYWGQGTQVTVSS | low polyreactivity
2) QVQLVESGGGLVQAGGSLRLSCAASGRTFNAYAMGWYRQAPGKERELVAAITWSGGSTYYAHSVKGRFTISRDNAKNTVYLQMNSLKPEDTAVYYCAARSFTNIRSVSSPYRYYYWGQGTQVTVSS | high polyreactivity
3) QVQLVESGGGLVQAGGSLRLSCAASGRTLSWYAMGWYRQAPGKERELVAAISYRGVSTYYADSVKGRFTISRDNAKNTVYLQMNSLNPEDTAVYYCAAESWYYSYIVEMEYWGQGTQVTVSS | high polyreactivity
4) QVKLVESGGGLVQAGGSLRLSCAASGSTFASYAMGWYRQDPGKQRELVAAITRSGGSSTYADSVKGRFTISRDNAKITVYLQMNSLKPEDTAVYYCAARYLYSYYVSYDYWGQGTQLTVSS | high polyreactivity
5) QVQLVESGGGLVQAGGSLRLSCAASGRTFQPYAMGWYRQAPGKERELVAAITSIGGSTFYADSVKGRFTISRDNAKNTVYLQMNSLKPEDTAVYYCNARRYWLRYDYWGQGTQVTVSS | low polyreactivity
6) QVQLVESGGGLVQAGGSLRLSCAASGSTLIRNVMGWYRQAPGKERELVAAINTRGTTTYYADSVKGRITISRDNAKNTVYLQMNSLKPEDTAVYYCAARTPHYSYGYWGQGTHVTVSS | high polyreactivity
7) QVQLVESGGGLVQAGGSLRLSCAASGRTFALNAMGWYRQAPGKERELVAAISWSSGRTYYADSVKGRFTISRDNAKNTVYLQMNSLKPEDTAVYYCAALVAHKGDYWGQGTQVTVSS | high polyreactivity
8) QVQLVESGGGLVQAGGSLRLSCAASGRIFTYYAMGWYSQAPGKERELVAAISRSGGRTYYADSVKGRFTISRDNAKNTVYLQMNSLTPEDTAVYYCAADRLSLRAYDYWGQGTQVTVSS | high polyreactivity
9) QVQLVESGGGLVQAGGSLRLSCAASGSTFVFYAMGWYRQAPGKERELVASISFRGGSTRYADSVKGRFTISRDNAKNTVYLQMNSLKPEDTAVYYCNARPFYRYYYWGQGTQVTVSS | high polyreactivity
10) QVQLVESGGGLLLAGGSLRLSCAASGYTFVYNAMGWYRHAPGKEREFVAAITWSGTSTRYADSVKGRFTISRDNAKNNVYLQMKSLKPEDTAVYYCAARRRSAQSGSYNHWGQGTQVTVSS | high polyreactivity

Below: the item to evaluate.
Q: For the sequence shown here, QVQLVESGGGLVQAGGSLRLSCAASGIIFYGYAMGWYRQATGKERELVAAISSGGGTNYADSVKGRFTISRDNAKNTVYLQMNSLKPEDTAVYYCAARQYRYYYWGQGTQVTVSS , give the reported polyreactivity (PSR sort gate).
Ans: high polyreactivity

###

Test: yeast display, Sf9 membrane polyspecificity reagent, FACS + sequencing; frameworks hold sequencing errors
ENDPOINT: polyreactivity (PSR sort gate)

Guide cases for polyreactivity (PSR sort gate), answers given:
1) QDKLVESGGGLVKAGGSLRLSCAASGSIFATYAMVWYRQAPGKERELVAAISKSTDSTYYADSVKGRFTISRDNAKNNVYLQMNSQKPEDTAVYYCAAVQRYKGLQDDSWGQGTQVTVSS | high polyreactivity
2) QVQLESGGGLVQAGGSLRLRCEASGITFQLYDMGWYRQAPGKERELVAAINSSGGSTYYADSVKGRFTISRDNAKNTVYLQMNSLKPEDTAVYYCNVGFAPVTNDQPVSTEYDYWGQGTQVTVSS | low polyreactivity
3) QVQLVESGGGLVQAGGSLRLSCAASGSTFDVNAMGWYRQAPGKERELVAAISWNSGSTYYADSVKGRFTISRDNAMITVFLQMNSLKPEDTAVYYCAATYGTGRRSKYGYWGQGSQVTVSS | high polyreactivity
4) QVQLVESGGGLVQAGGSLRLSSAASGSIFSQNAMVWYTQAPGKERELVASISSGDSTTYADSVKGRFTISRDNAKNTVYLQMNSLKPEDTAVYYCNAYRYNALPWRYVGYDYWGQGTQVTVSS | low polyreactivity

Next sequence, please.
Q: Name the reported polyreactivity (PSR sort gate) value associated with the sequence QDQLVESGGGLVQAGGSLRLSCAASGRTFRSYAMGWSRQAPGKERELVAAISTRGGSTYYADSVKGRFTISRDYAKNTVYLQMNSLKPEDTAVYYCAARGTPSARYGDWGQGTQVTVSS
Ans: high polyreactivity
